target: pre-pro-insulin glargine
Please provide measured desArg for the entries that follow.
Quick note: give the figure in area %, leave out the unit.

*Q* Provide measured desArg value, entry: trypsin variant SEQ ID NO: 106 (protein) IVGGYTCAANSIPYQVSLNSGSHRCGGSLINSQWVVSAAHCYKSRIQVRLGEHNIHVLEGNEQFINAAKIITHPNFNPNTLDNDIMLIKLSSPATLNSAVATVSLPTSCAAAGTECLISGWGNTCSSGSSMPSLLQCLKAPVLSDSSCKSSYPGQITGNMICVGFLEGGADACQGDSGGPVVCNGQLQGIVSSGYGCAQKNKPGVYTKVCNYVNWIQQTIAAN
*A* 0.7

*Q* Determine from records and report desArg for trypsin variant SEQ ID NO: 103 (protein) IVGGYTCAANSIPYQVSLNSGSHRCGGSLINSQWVVSAAHCYKPRIQVRLGEHNIHVLEGNEQFINAAKIITHPNFNPNTLDNDIMLIKLSSPATLNSHVATVSLPTSCAAAGTECLISGWGNTSSSGSSMPSLLQCLKAPVLSDSSCKSSYPGQITGNMICVGFLEGGADSCQGDSGGPVVCNGQLQGIVSSGYGCAQKNKPGVYTKVCNYVNWIQQTIAAN
*A* 0.9

*Q* Read the entry trypsin variant SEQ ID NO: 108 (protein) IVGGYTCAANSIPYQVSLNSGSHRCGGSLINSQWVVSAAHCYKPRIQVRLGEHNIDVLEGNEQFINAAKIITHPNFNPNTLDNDIMLIKLSSPATLNSAVATVSLPTSCAAAGTECLISGWGNTCSSGSSMPSLLQCLKAPVLSDSSCKSSYPGQITGNMICVGFLEGGADACQGDSGGPVVCNGQLQGIVSSGYGCAQKNKPGVYTKVCNYVNWIQQTIAAN and write its reported desArg.
*A* 0.8

Reference source for all entries: patent US20230303994
